# Tgt: Nan-KLF1 zinc finger domain (mouse (murine), Nan mutant, UniProt P46099 243-358, E321D)
# Sequence (P46099 243-358 E321D): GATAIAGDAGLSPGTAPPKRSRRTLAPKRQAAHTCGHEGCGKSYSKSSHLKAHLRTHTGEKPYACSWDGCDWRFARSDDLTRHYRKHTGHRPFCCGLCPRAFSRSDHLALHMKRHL
# Protocol summary: fluorescence polarization
Value kind: Kd (µM)
Response body: numeric value in µM, unit text excluded.

Could you please provide reported Kd for Alas2_fp (CG) (dsDNA, 5' fluorescein-dT (/5FluorT/) preceding S51, written as T) DNA 1: TTCTCTCCCACGCCCTGGGCTC DNA 2: GAGCCCAGGGCGTGGGAGAGA ? Thanks!
0.13

All figures here come from paper PMC5388391.
